- Test system: Mus musculus
- Protocol details: Hepatotoxicity in Kunming mouse at 5 to 500 mg/kg, ip after 14 days by macroscopic method
- Format: toxicity, organism-based
- Measurement parameters: in vivo, 336 h
Result type: Activity

Below, each entry is followed by its recorded Activity result.
[
  {
    "Structure smiles": "Cc1nccc2c3ccc(OCCCCn4c5ccccc5c5ccncc54)cc3n(CCCc3ccccc3)c12.Cl",
    "Endpoint value": "Non-Toxic"
  },
  {
    "Structure smiles": "Cc1nccc2c3ccc(OCCCCn4c5ccccc5c5ccnc(-c6cccs6)c54)cc3n(CCCc3ccccc3)c12.Cl",
    "Endpoint value": "Non-Toxic"
  },
  {
    "Structure smiles": "Cc1nccc2c3ccccc3n(CCCCOc3ccc4c5ccnc(C)c5n(CCCc5ccccc5)c4c3)c12.Cl",
    "Endpoint value": "Non-Toxic"
  },
  {
    "Structure smiles": "COc1ccc2c3ccnc(C)c3n(CCCCOc3ccc4c5ccnc(C)c5n(CCCc5ccccc5)c4c3)c2c1.Cl",
    "Endpoint value": "Non-Toxic"
  }
]

State measured Activity of the compound CCCCn1c2cc(OCCCCn3c4ccccc4c4ccnc(C)c43)ccc2c2ccnc(C)c21.Cl with Mus musculus.
Non-Toxic

State measured Activity of the compound COc1ccc(-c2nccc3c4ccccc4n(CCCCOc4ccc5c6ccnc(C)c6n(CCCc6ccccc6)c5c4)c23)cc1.Cl with Mus musculus.
Non-Toxic
